For each record, write down the corresponding polymerase ribozyme fitness (log ratio).
B1: TPR 5TU (parent)
chain: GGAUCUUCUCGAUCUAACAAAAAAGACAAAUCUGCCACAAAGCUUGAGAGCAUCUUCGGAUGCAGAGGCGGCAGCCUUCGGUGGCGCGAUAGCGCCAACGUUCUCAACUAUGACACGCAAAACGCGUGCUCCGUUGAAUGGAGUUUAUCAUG

- Variants of: B1
- ASSAY_NOTES: polymerase ribozyme fitness, log enrichment relative to wild type (log ratio); higher = more active; in vitro selection for triplet polymerase activity
Fewer inactive variants are shown than the library holds.
Number only, no unit.

Which polymerase ribozyme fitness (log ratio) is listed for U53A C132U U146G ?
-3.87

Which polymerase ribozyme fitness (log ratio) is listed for U31C A60U A110G C118G U144C ?
-3.59

Which polymerase ribozyme fitness (log ratio) is listed for A17C A41U U56A C99U A121G A147G ?
-3.04

Which polymerase ribozyme fitness (log ratio) is listed for A49G G84A ?
-0.52

Which polymerase ribozyme fitness (log ratio) is listed for G25C C132U ?
-3.65

Which polymerase ribozyme fitness (log ratio) is listed for A21C G50A U102A ?
-1.21

Which polymerase ribozyme fitness (log ratio) is listed for A20G U55A C96A U104G ?
-2.4

Which polymerase ribozyme fitness (log ratio) is listed for C54U G81U G83U G152U ?
-4.17

Which polymerase ribozyme fitness (log ratio) is listed for C85U U101A ?
-0.791

Which polymerase ribozyme fitness (log ratio) is listed for C18U A97G C131G ?
-3.22

Which polymerase ribozyme fitness (log ratio) is listed for A39U U101C U144G ?
-2.52

Which polymerase ribozyme fitness (log ratio) is listed for C54A C105U A121G ?
-0.876

Which polymerase ribozyme fitness (log ratio) is listed for G70A G84U C116A ?
-4.13

Which polymerase ribozyme fitness (log ratio) is listed for U6A C87U ?
-0.846

Which polymerase ribozyme fitness (log ratio) is listed for C38U C116G U148A ?
-3.89

Which polymerase ribozyme fitness (log ratio) is listed for A28U C96A ?
-3.93

Which polymerase ribozyme fitness (log ratio) is listed for G59U G84U ?
-2.72

Which polymerase ribozyme fitness (log ratio) is listed for C103G A119C ?
-1.49

Which polymerase ribozyme fitness (log ratio) is listed for A24U C96A U145A ?
0.748

Which polymerase ribozyme fitness (log ratio) is listed for U55A G81A C93U C105A C118U ?
-3.74

Which polymerase ribozyme fitness (log ratio) is listed for C18G C54U U78C ?
-2.12

Which polymerase ribozyme fitness (log ratio) is listed for C8U G59A C116U ?
-3.27

Which polymerase ribozyme fitness (log ratio) is listed for C57A U127A ?
-3.56

Which polymerase ribozyme fitness (log ratio) is listed for C35G C76U ?
-3.99

Which polymerase ribozyme fitness (log ratio) is listed for A3U C76U G124C G141C ?
-3.96

Which polymerase ribozyme fitness (log ratio) is listed for G84A C114G G124A U134C ?
-3.53

Which polymerase ribozyme fitness (log ratio) is listed for U55G G81A C118U U135G ?
-3.84

Which polymerase ribozyme fitness (log ratio) is listed for C38U C93G ?
-2.92

Which polymerase ribozyme fitness (log ratio) is listed for G86A C103G C123U ?
-3.36

Which polymerase ribozyme fitness (log ratio) is listed for C18U C93U C99U A150G ?
-2.85
